Origin of values: patent US20130252951A1

# Target system: human CCR2 (Homo sapiens, UniProt P41597)
# Sequence (P41597 whole entry): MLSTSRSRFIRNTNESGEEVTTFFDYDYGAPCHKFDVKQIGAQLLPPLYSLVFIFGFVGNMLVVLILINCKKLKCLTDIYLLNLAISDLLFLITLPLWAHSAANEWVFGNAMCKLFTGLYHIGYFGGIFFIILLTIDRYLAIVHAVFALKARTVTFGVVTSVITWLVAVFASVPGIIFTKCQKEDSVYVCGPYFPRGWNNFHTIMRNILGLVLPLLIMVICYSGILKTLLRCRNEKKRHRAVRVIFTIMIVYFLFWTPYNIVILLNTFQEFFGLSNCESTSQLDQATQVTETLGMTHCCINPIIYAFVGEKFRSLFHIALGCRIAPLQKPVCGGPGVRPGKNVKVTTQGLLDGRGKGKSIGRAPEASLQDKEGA
# Protocol details: CCR2 functional calcium assay (FLIPR calcium flux, hMCP-1 challenge)
# Type: cell-based
# Set-up: expressed in transfected cells; host or cells: HEK293 EBNA cells
# Settings: HEK293 EBNA cells transfected with human CCR2, hMCP-1 challenge; read-out: Functional CCR2 fKi
Quantity measured: Ki

# example entries with known answers
{"Compound": "CCOC(=O)c1nc2ccnn2c(O)c1Cc1cccc(C(F)(F)F)c1 [Example 71]", "Ki": "10 to 100 nM"}
{"Compound": "CC(C)c1nc2ccnn2c(O)c1Cc1ccc(F)c(Cl)c1 [Example 37]", "Ki": "< 10 nM"}
{"Compound": "Oc1c(Cc2ccc(Cl)c(Cl)c2)c(C(F)(F)F)nc2ccnn12 [Example 55]", "Ki": "< 10 nM"}
{"Compound": "CCOC(=O)c1nc2ccnn2c(O)c1Oc1ccc(Cl)c(Cl)c1 [Example 76]", "Ki": "10 to 100 nM"}
{"Compound": "Cc1nc2c(C(=O)N3CCN(C)CC3)cnn2c(O)c1Cc1ccc(Cl)cc1 [Example 104]", "Ki": "100 to 1000 nM"}

Count: 3. Required value per item: Ki.
1. Cc1nc2c(C(=O)NC[C@H]3CCCO3)cnn2c(O)c1Cc1ccc(Cl)cc1 [Example 101]
2. Oc1c(Cc2ccc(C(F)(F)F)c(F)c2)c(C2CC2)nc2ccnn12 [Example 32]
3. Oc1c(Cc2ccc(F)c(Cl)c2)c(C2CC2)nc2ccnn12 [Example 28]

100 to 1000 nM
< 10 nM
< 10 nM

Consider the compound CCc1nc2ccnn2c(O)c1Cc1cc(F)c(F)c(F)c1 [Example 13] . State its measured Ki.
< 10 nM

---

What pKi was measured for each of the following?
# Target system: UniProt:P41597
# Protocol details: CCR2 functional calcium assay (FLIPR calcium flux, hMCP-1 challenge)
# Type: cell-based
# Parameters: expressed in transfected cells; host or cells: HEK293 EBNA cells
# Settings: HEK293 EBNA cells transfected with human CCR2, hMCP-1 challenge; read-out: Functional CCR2 fKi
pKi: −log10 of the molar value.

Answered cases to consult:
{"Compound": "CC(O)c1nc2ccnn2c(O)c1Cc1cccc(F)c1 (stereo not drawn)", "Target system": "UniProt:P41597", "Measured": "6.00 to 7.00"}
{"Compound": "COC(=O)c1nc2ccnn2c(O)c1Cc1cccc(F)c1", "Target system": "UniProt:P41597", "Measured": "7.00 to 8.00"}
{"Compound": "Oc1c(Cc2cccc(Cl)c2)c(C2CC2)nc2ccnn12", "Target system": "UniProt:P41597", "Measured": "> 8.00"}
{"Compound": "COCc1nc2ccnn2c(O)c1Cc1ccc(Cl)c(F)c1", "Target system": "UniProt:P41597", "Measured": "7.00 to 8.00"}

Quick batch: pKi for everything below.
1. Oc1c(Cc2cc(F)cc(C(F)(F)F)c2)c(C2CCC2)nc2ccnn12
2. Oc1c(Cc2ccc(Cl)cc2)c(CN2CCOCC2)nc2ccnn12
3. COCc1nc2ccnn2c(O)c1Cc1ccc(Cl)c(Cl)c1
4. CCc1nc2ccnn2c(O)c1Oc1cccc(C(F)(F)F)c1

["> 8.00", "6.00 to 7.00", "> 8.00", "6.00 to 7.00"]
